Attribution: ChEMBL document CHEMBL1201862

- System: SR
- Method Description: NCI tumour cell line growth inhibition, 48 h
Activity calls are given as the source filed them. Rule as the data show it: active = GI50 up to about 1.1 µM and inactive = higher.
Log the outcome using a class from yes (1) = active, no (0) = inactive

INPUT: // return assay outcome for "CC#Cc1c(C#CC)c(OC)c2c(c1OC)C(=O)c1ccccc1C2=O"
OUTPUT: no (0)

INPUT: // next record "CCCCCCCCCCCC(=O)OCCOCCOCCOCCOCCOC(=O)CCCCCCCCCCC"
OUTPUT: no (0)

INPUT: Same lookup for "COc1ccc2[nH]cc(C=C3C(=O)NC(=S)NC3=O)c2c1" , please.
OUTPUT: no (0)

INPUT: Then what about the compound O=C(CC(C(=O)c1cccs1)c1cccs1)c1ccsc1 (stereo not given) ?
OUTPUT: no (0)

INPUT: Another compound: CC(=O)OCC(C)C1=C(O)C(=O)C2(C)C/C=C(/C)CC/C=C(\C)CCC(O)C(C)CCC12 (stereo not given)
OUTPUT: no (0)

INPUT: Moving on to the next compound: COC(=O)[C@]1(c2cc3ccccc3n2S(=O)(=O)c2ccccc2)CC2CCC1NC2 (stereo not given in full)
OUTPUT: yes (1)

INPUT: Also CCCCCCC1CC(=O)C1(Cl)Cl (stereo not given) , if possible.
OUTPUT: no (0)

INPUT: How about this compound: COc1cc2oc(-c3ccc(O)cc3)cc(=O)c2c(O)c1C1OC(CO)C(O)C(O)C1O (stereo not given)
OUTPUT: no (0)

INPUT: Also, "CCOC(=O)/C1=C(\C)N(c2ccc(C)cc2)C(=O)c2ccccc2C(=O)c2c(OC(C)=O)ccc(OC(C)=O)c21" please.
OUTPUT: no (0)

INPUT: Do the same for "Nc1nc(Cl)cc(NCC2(CO)COC2)n1" please
OUTPUT: no (0)

INPUT: Check O=C(Nc1cc(C(F)(F)F)ccc1Cl)C(=O)C(C(=O)c1ccc2ccccc2c1)C1OC(=O)c2ccccc21 (stereo not given) too.
OUTPUT: no (0)

INPUT: Param item: "CCOC(=O)c1ccc(-c2cccs2)[nH]1"
OUTPUT: no (0)

INPUT: Then "COc1ccc(NC(S)=Nc2ccccc2)cc1" ?
OUTPUT: no (0)

INPUT: Next entry: "CCOC(=O)/C(=N/Nc1ccccc1)N1C(=S)N(C)N=C(C)C=C1S"
OUTPUT: no (0)

INPUT: "O=C(/C=C/c1ccccc1O)c1cccnc1" ?
OUTPUT: no (0)

INPUT: Item: "CC1(C)CC(=O)c2c(nc3ccc4ccccc4c3c2-c2ccc(NC(=O)CCCCC(=O)Nc3ccc(-c4c5c(nc6ccc7ccccc7c46)CC(C)(C)CC5=O)cc3)cc2)C1"
OUTPUT: no (0)

INPUT: Do the same for CC/C(=C/OC)P1(=O)OC(C)(C)CN1C(C)(C)C (stereo not given) please
OUTPUT: no (0)

INPUT: Subsequent entry: COc1nc(NC2OCC(OC(C)=O)C(OC(C)=O)C2OC(C)=O)c(/N=C\C=N\c2c(NC3OCC(OC(C)=O)C(OC(C)=O)C3OC(C)=O)nc(OC)n(C)c2=O)c(=O)n1C (stereo not given)
OUTPUT: no (0)

INPUT: Another compound to check: "c1ccc2c3c(ccc2c1)CSCc1ccc2ccccc2c1-3"
OUTPUT: no (0)

INPUT: Queued: "O=C(NC(=S)Nc1ccc2c(c1)Sc1ccccc1O2)c1ccc([N+](=O)[O-])cc1"
OUTPUT: no (0)

---

- Tested on: MOLT-4
- Method Description: NCI tumour cell line growth inhibition, 48 h
Activity calls are given as the source filed them. No stated cut-off is given here; in the data, active = GI50 up to about 1.1 µM and inactive = higher.
Pick one: True = active, False = inactive

INPUT: Field: outcome | Entry: "CC#Cc1c(C#CC)c(OC)c2c(c1OC)C(=O)c1ccccc1C2=O"
OUTPUT: False

INPUT: Now give it for CN(O)C(=O)SCC(NC(=O)CCC(N)C(=O)O)C(=O)NCC(=O)O (configuration not stated) too.
OUTPUT: False

INPUT: Again, but for "CC(=O)OCc1cc(CCC(=O)NCCNc2c3ccccc3nc3ccccc23)cc(COC(C)=O)c1O[Si](C)(C)C(C)(C)C"
OUTPUT: False

INPUT: Repeat with CC(=O)N1OC(C)CC1Nc1ccc(Br)cc1 (configuration not stated)
OUTPUT: True

INPUT: Again, but for CCC(Cc1cnc2nc(N)nc(N)c2n1)c1ccc(C(=O)NC(CCC(=O)O)C(=O)O)cc1 (configuration not stated)
OUTPUT: True

INPUT: Entry to check: CCCCCCC1CC(=O)C1(Cl)Cl (configuration not stated)
OUTPUT: False

INPUT: Repeat for the following compound: "COC(=O)c1onc(-c2c(OC)cc(OC)cc2OC)c1C(=O)OC"
OUTPUT: False

INPUT: Now consider O=C(O)CCC1CCc2cccc3occ1c23 (configuration not stated) and answer again.
OUTPUT: False

INPUT: Entry to check: "CSC(=S)NN=C1CCCC1.CSC(=S)NN=C1CCCC1.[Zn+2]"
OUTPUT: False

INPUT: Continue with "O=C(O)CCC(=O)N1C/C(=C\c2ccccc2)C(=O)/C(=C/c2ccccc2)C1"
OUTPUT: False

INPUT: // query: "CCOC(=O)C1(Cc2ccccc2)Cc2cc3c(cc2C1)CCC3"
OUTPUT: False

INPUT: Now consider "COP(=O)(OC)/C(=C/c1c[nH]c2ccccc12)C(=O)O" and answer again.
OUTPUT: False

INPUT: How about this compound: c1ccc(C2C3=C(Nc4ncnn42)c2ccccc2C3)cc1 (configuration not stated)
OUTPUT: False

INPUT: Same lookup for CC(C)=CCc1ccc2[nH]c3c(c2c1)C(=O)C(=O)C(C)=C3C(O)C(C)O (configuration not stated) , please.
OUTPUT: False

INPUT: And for "O=C(O)CN1CCNCCN(CC(=O)O)CCNCC1" ?
OUTPUT: False

INPUT: Repeat for the following compound: "COc1c(C)c2nc3ccccc3nc2c2c(O)ccnc12"
OUTPUT: False

INPUT: Next up: "Oc1cnnc2nc3ccccc3n12"
OUTPUT: False

INPUT: Next up: O=c1cccccc1O [TROPOLONE]
OUTPUT: False

INPUT: What about this compound? "O=S(=O)(O)c1ccc(-c2c3nc(c(-c4ccc(S(=O)(=O)O)cc4)c4ccc([nH]4)c(-c4ccc(S(=O)(=O)O)cc4)c4nc(c(-c5ccc(S(=O)(=O)O)cc5)c5ccc2[nH]5)C=C4)C=C3)cc1"
OUTPUT: False

INPUT: Same for "CCOC(=O)/C1=C(\C)N(c2ccc(C)cc2)C(=O)c2ccccc2C(=O)c2c(OC(C)=O)ccc(OC(C)=O)c21"
OUTPUT: False

INPUT: Next entry: "Cn1c(=O)c2c(nc(Cc3ccccc3)n2CC(=O)O)n(C)c1=O"
OUTPUT: False

INPUT: What about this compound? "Cc1c(S(=O)(=O)N/C(N)=N/c2ccc(Cl)cc2)sc2ccc(Cl)cc12"
OUTPUT: False

INPUT: Then this compound: CCN1CCC(O)(c2ccc(OC)cc2)C(C(=O)c2ccc(OC)cc2)C1 (configuration not stated)
OUTPUT: False

INPUT: Cool, now "CC1=NN(c2nc(N)nc(CN3CCOCC3)n2)C(C)(C)C1"
OUTPUT: False

INPUT: Also "C/C(=N/NC(=O)c1ccccc1O)c1ccc(/C(C)=N\NC(=O)c2ccccc2O)c2nc3cc(C)c(C)cc3nc12" , if possible.
OUTPUT: False

INPUT: And "CC1(C)CC(=O)c2c(nc3ccc4ccccc4c3c2-c2ccc(NC(=O)CCCCC(=O)Nc3ccc(-c4c5c(nc6ccc7ccccc7c46)CC(C)(C)CC5=O)cc3)cc2)C1" ?
OUTPUT: False

INPUT: Request: "C=CC[N+](CCO)(CCO)CCCCCCCCCCCCCCCCCC"
OUTPUT: False

INPUT: Please give the result for "COc1cc2nc(-c3c(F)cccc3F)n(Cc3c(F)cccc3F)c2cc1Cc1c(F)cccc1F" too.
OUTPUT: False

INPUT: Moving on to the next compound: "C/C(=N/O)c1sc(-c2nc(C)c(/C(C)=N\O)s2)nc1C"
OUTPUT: False

INPUT: Another compound: "O=C(/C=C/c1c(O)ccc2ccccc12)c1ccccc1"
OUTPUT: False

INPUT: "CCCCCCCCCCCC(=O)OCCOCCOCCOCCOCCOC(=O)CCCCCCCCCCC" ?
OUTPUT: False

INPUT: Lookup "CCOC(=N)CC(=O)Nc1ccc(Cl)cc1"
OUTPUT: False

INPUT: Also need "O=C1CSCc2sccc21" , thanks.
OUTPUT: False

INPUT: Try the compound "Cc1cc(C)nc(NC(=S)Nc2ccccc2Cl)c1"
OUTPUT: False

INPUT: Try this compound too: COP(=O)(OC)C(Nc1ccc(Cc2ccc(NC(c3ccco3)P(=O)(OC)OC)cc2)cc1)c1ccco1 (configuration not stated)
OUTPUT: False

INPUT: Check COc1ccc(OC)c2c1C=C[C@H](C1(C)SCCS1)C2C(C)=O (some centres not stated) too.
OUTPUT: False

INPUT: Okay, and NC(C(=O)O)C(O)c1c[nH]cn1 (configuration not stated) ?
OUTPUT: False

INPUT: Try this compound too: "Nc1nc(Cl)c(C=O)c(NCC2(CO)CCC2)n1"
OUTPUT: False

INPUT: Check "CCCCCCCc1cc(OC(=O)c2c(C)cc(OC)cc2O)cc(O)c1C(=O)O" too.
OUTPUT: False

INPUT: Now the same for "Cc1ccc(S(=O)(=O)NCCSCCNS(=O)(=O)c2ccc(C)cc2)cc1"
OUTPUT: False

INPUT: CC1=C2[C@@H](c3ccccc3)C3C=CC2(C=C3C(F)(F)F)N(C(=O)NC2CCCCC2)C1=O (some centres not stated) ?
OUTPUT: False

INPUT: // query: "COc1ccc2cc(/C=N\NC(=O)Nc3cccc4ccccc34)ccc2c1"
OUTPUT: False
